system: western flower thrips (Frankliniella occidentalis); test: Test E: control of western flower thrips on Soleil bean plant, contact and/or systemic; assay type: in vivo; conditions: sprayed at 250 ppm; held 6 days
readout.kind: levels of control efficacy (20% or less feeding damage or 80% or more mortality)

• CC(C)NC(=O)CNC(=O)c1ccc(C2=NOC(c3cc(Cl)cc(C(F)(F)F)c3)(C(F)(F)F)C2)c2ccccc12 (stereo not drawn) [Compound 63] = very good to excellent
• CC(NC(=O)c1ccc(C2=NOC(c3cc(Cl)cc(Cl)c3)(C(F)(F)F)C2)c2ccccc12)C(=O)NC(C)C(F)(F)F (mixture of isomers) [Compound 123] = very good to excellent
• CCN(C)C(=O)CNC(=O)c1ccc(C2=NOC(c3cc(Cl)cc(Cl)c3)(C(F)(F)F)C2)c2ccccc12 (stereo not drawn) [Compound 7] = very good to excellent
• CNC(=O)C(C)NC(=O)c1ccc(C2=NOC(c3cc(C(F)(F)F)cc(C(F)(F)F)c3)(C(F)(F)F)C2)c2ccccc12 (stereo not drawn) [Compound 86] = very good to excellent
• C[S+]([O-])CCNC(=O)c1ccc(C2=NOC(c3cc(C(F)(F)F)cc(C(F)(F)F)c3)(C(F)(F)F)C2)c2ccccc12 (stereo not drawn) [Compound 79] = very good to excellent
• CS(=O)(=O)CCNC(=O)c1ccc(C2=NOC(c3cc(Cl)cc(C(F)(F)F)c3)(C(F)(F)F)C2)c2ccccc12 (stereo not drawn) [Compound 66] = very good to excellent
